- Tested on: Haemophilus influenzae
- measurementDescription: In vitro antimicrobial activity against Haemophilus influenzae.
- Type: functional
quantityKind: MIC (µg/mL)
A number alone suffices; assume µg/mL.

| compound | unitsSymbol | MIC |
| --- | --- | --- |
| CC[C@H]1OC(=O)C[C@@H](O)[C@H](C)[C@@H](O[C@@H]2O[C@H](C)[C@@H](O)[C@H](N(C)C)[C@H]2O)[C@@H](CCOc2ccccc2)C[C@@H](C)C(=O)/C=C/C(C)=C/[C@@H]1CO[C@@H]1O[C@H](C)[C@@H](O)[C@@H](OC)[C@H]1OC | µg/mL | 32 |

Consider the compound CC[C@H]1OC(=O)C[C@@H](O)[C@H](C)[C@@H](O[C@@H]2O[C@H](C)[C@@H](O)[C@H](N(C)C)[C@H]2O)[C@@H](CCCl)C[C@@H](C)C(=O)/C=C/C(C)=C/[C@@H]1CO[C@@H]1O[C@H](C)[C@@H](O)[C@@H](OC)[C@H]1OC and give its measured MIC. 16

Then what about the compound CC[C@H]1OC(=O)C[C@@H](O)[C@H](C)[C@@H](O[C@@H]2O[C@H](C)[C@@H](O[C@H]3C[C@@](C)(O)[C@@H](O)[C@H](C)O3)[C@H](N(C)C)[C@H]2O)[C@@H](CCOc2ccc(OC)cc2)C[C@@H](C)C(=O)/C=C/C(C)=C/[C@@H]1CO[C@@H]1O[C@H](C)[C@@H](O)[C@@H](OC)[C@H]1OC ? 128

Then what about the compound CC[C@H]1OC(=O)C[C@@H](O)[C@H](C)[C@@H](O[C@@H]2O[C@H](C)[C@@H](O[C@H]3C[C@@](C)(O)[C@@H](O)[C@H](C)O3)[C@H](N(C)C)[C@H]2O)[C@@H](C)C[C@@H](C)C(=O)/C=C/C(C)=C/[C@@H]1CO[C@@H]1O[C@H](C)[C@@H](O)[C@@H](OC)[C@H]1OC [DEFORMYLTYLOSIN] ? 128

Then what about the compound CC[C@H]1OC(=O)C[C@@H](O)[C@H](C)[C@@H](O[C@@H]2O[C@H](C)[C@@H](O)[C@H](N(C)C)[C@H]2O)[C@@H](CCI)C[C@@H](C)C(=O)/C=C/C(C)=C/[C@@H]1CO[C@@H]1O[C@H](C)[C@@H](O)[C@@H](O)[C@H]1OC ? 32

----------
Reported MIC is given for each of the following compounds.
- Tested on: Fusobacterium
- measurementDescription: In vitro antimicrobial activity against anaerobic bacteria fusobacterium symbiosum 1470
- Assay type: functional
A number alone suffices; assume µg/mL.

Please review the following examples before continuing.
| compound | unitsSymbol | MIC |
| --- | --- | --- |
| CC[C@H]1OC(=O)C[C@@H](O)[C@H](C)[C@@H](O[C@@H]2O[C@H](C)[C@@H](O[C@H]3C[C@@](C)(O)[C@@H](O)[C@H](C)O3)[C@H](N(C)C)[C@H]2O)[C@@H](CC=O)C[C@@H](C)C(=O)/C=C/C(C)=C/[C@@H]1CO | µg/mL | 0.5 |
| CC[C@H]1OC(=O)C[C@@H](O)[C@H](C)[C@@H](O[C@@H]2O[C@H](C)[C@@H](O)[C@H](N(C)C)[C@H]2O)[C@@H](CCCl)C[C@@H](C)C(=O)/C=C/C(C)=C/[C@@H]1CO[C@@H]1O[C@H](C)[C@@H](O)[C@@H](OC)[C@H]1OC | µg/mL | 2 |

Consider the compound CC[C@H]1OC(=O)C[C@@H](O)[C@H](C)[C@@H](O[C@@H]2O[C@H](C)[C@@H](O[C@H]3C[C@@](C)(O)[C@@H](O)[C@H](C)O3)[C@H](N(C)C)[C@H]2O)[C@@H](CCO)C[C@@H](C)C(=O)/C=C/C(C)=C/[C@@H]1CO[C@@H]1O[C@H](C)[C@@H](O)[C@@H](OC)[C@H]1OC [RELOMYCIN] and give its measured MIC. 4

----------
- System: Streptococcus
- measurementDescription: In vitro antimicrobial activity against aerobic bacteria Streptococcus D 9960
- Format: functional
quantityKind: MIC (µg/mL)
A number alone suffices; assume µg/mL.

| testSmiles | unitsSymbol | MIC |
| --- | --- | --- |
| CC[C@H]1OC(=O)C[C@@H](O)[C@H](C)[C@@H](O[C@@H]2O[C@H](C)[C@@H](O)[C@H](N(C)C)[C@H]2O)[C@@H](CCOc2ccccc2)C[C@@H](C)C(=O)/C=C/C(C)=C/[C@@H]1CO[C@@H]1O[C@H](C)[C@@H](O)[C@@H](OC)[C@H]1OC | µg/mL | 8 |
| CC[C@H]1OC(=O)C[C@@H](O)[C@H](C)[C@@H](O[C@@H]2O[C@H](C)[C@@H](O)[C@H](N(C)C)[C@H]2O)[C@@H](CCCl)C[C@@H](C)C(=O)/C=C/C(C)=C/[C@@H]1CO[C@@H]1O[C@H](C)[C@@H](O)[C@@H](OC)[C@H]1OC | µg/mL | 8 |

Item: CC[C@H]1OC(=O)C[C@@H](O)[C@H](C)[C@@H](O[C@@H]2O[C@H](C)[C@@H](O)[C@H](N(C)C)[C@H]2O)[C@@H](CCN=[N+]=[N-])C[C@@H](C)C(=O)/C=C/C(C)=C/[C@@H]1CO[C@@H]1O[C@H](C)[C@@H](O)[C@@H](OC)[C@H]1OC Test system: Streptococcus Read-out: MIC Value: ? 8

----------
- Tested on: Fusobacterium
- measurementDescription: In vitro antimicrobial activity against anaerobic bacteria fusobacterium symbiosum 1470
- Type: functional
Reported MIC is given for each of the following molecules.

| testSmiles | quantityKind | observed |
| --- | --- | --- |
| CC[C@H]1OC(=O)C[C@@H](O)[C@H](C)[C@@H](O[C@@H]2O[C@H](C)[C@@H](O)[C@H](N(C)C)[C@H]2O)[C@@H](CCO)C[C@@H](C)C(=O)/C=C/C(C)=C/[C@@H]1CO | MIC | > 8 µg/mL |

Item: CC[C@H]1OC(=O)C[C@@H](O)[C@H](C)[C@@H](O[C@@H]2O[C@H](C)[C@@H](O[C@H]3C[C@@](C)(O)[C@@H](O)[C@H](C)O3)[C@H](N(C)C)[C@H]2O)[C@@H](CC=O)C[C@@H](C)C(=O)/C=C/C(C)=C/[C@@H]1CO[C@@H]1O[C@H](C)[C@@H](O)[C@@H](OC)[C@H]1OC Test system: Fusobacterium Read-out: MIC Value: ? < 0.03 µg/mL

Then what about the molecule CC[C@H]1C[C@@H](C)C(=O)/C=C/C(C)=C/[C@H](CO)[C@@H](CC)OC(=O)C[C@@H](O)[C@H](C)[C@H]1O[C@@H]1O[C@H](C)[C@@H](O)[C@H](N(C)C)[C@H]1O ? > 8 µg/mL

Then what about the molecule CC[C@H]1OC(=O)C[C@@H](O)[C@H](C)[C@@H](O[C@@H]2O[C@H](C)[C@@H](O)[C@H](N(C)C)[C@H]2O)[C@@H](CC=O)C[C@@H](C)C(=O)/C=C/C(C)=C/[C@@H]1CO ? < 0.005 µg/mL
